Hello, the source for this data is patent US5948406A, in case you need it.

# Tested on: Protein A purified IgG (rabbit antibodies to diacyl hydrazines)
# ASSAY COMMENT: Indirect immunoassay (inhibition of purified IgG binding to RH2703-BSA coating antigen)
# CONDITION NOTES: indirect assay; IC50 of RH5992 / IC50 of analog x 100
Cross reactivity by entry:

MOLECULE	Cross reactivity [%]
CC(C)(C)N(NC(=O)c1ccc(Cl)cc1)C(=O)c1ccccc1	9
CCc1ccc(C(=O)NN(C(=O)c2cc(C)cc(C)c2)C(C)(C)C)cc1	100
Cc1cc(C)cc(C(=O)N(NC(=O)c2ccc(C(=O)O)cc2)C(C)(C)C)c1	38
Cc1cc(C)cc(C(=O)N(NC(=O)c2ccc(CC(=O)O)cc2)C(C)(C)C)c1	54
